Data origin, for the record: paper PMC10709440

Target: Drosophila OR49b (Drosophila melanogaster)
Construct: expressed in transfected cells
Sequence (Q9V6H2 whole entry, one chain of several): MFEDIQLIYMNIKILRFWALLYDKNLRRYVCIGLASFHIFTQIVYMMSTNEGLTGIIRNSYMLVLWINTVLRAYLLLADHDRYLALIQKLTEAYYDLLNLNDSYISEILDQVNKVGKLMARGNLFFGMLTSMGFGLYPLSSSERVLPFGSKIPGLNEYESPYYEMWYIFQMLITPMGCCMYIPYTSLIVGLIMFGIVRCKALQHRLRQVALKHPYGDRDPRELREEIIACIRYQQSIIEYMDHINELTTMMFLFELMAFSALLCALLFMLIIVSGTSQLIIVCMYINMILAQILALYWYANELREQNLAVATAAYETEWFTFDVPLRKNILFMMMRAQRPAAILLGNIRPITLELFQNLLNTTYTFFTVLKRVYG
Assay: cell-based
Conditions: OR49b cell line; fitted Hill equation, Hill coefficient constrained to 1, maximal response max 1; read-out: EC50
assay.metric: EC50

Task: May I ask what EC50 has been recorded for C=Cc1ccccc1 ?
Result: 21.1 µM

* * *

Target: Drosophila OR85b (Drosophila melanogaster, UniProt Q9VHQ7)
Construct: expressed in transfected cells
Sequence (Q9VHQ7 whole entry, one chain of several): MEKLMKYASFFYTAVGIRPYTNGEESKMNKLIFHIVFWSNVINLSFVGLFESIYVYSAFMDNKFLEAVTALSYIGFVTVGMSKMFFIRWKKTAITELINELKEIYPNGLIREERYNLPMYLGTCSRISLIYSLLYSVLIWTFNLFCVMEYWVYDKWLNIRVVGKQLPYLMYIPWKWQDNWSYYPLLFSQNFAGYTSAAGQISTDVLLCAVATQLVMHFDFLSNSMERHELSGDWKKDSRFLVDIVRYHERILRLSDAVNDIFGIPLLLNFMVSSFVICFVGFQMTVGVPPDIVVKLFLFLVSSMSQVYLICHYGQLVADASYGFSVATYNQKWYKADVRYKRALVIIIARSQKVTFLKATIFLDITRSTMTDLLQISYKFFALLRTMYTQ
Assay: cell-based
Design: GCaMP6 calcium fluorescence in stable HEK293 OR+ORCO lines; peak dF normalised to 50 uM VUAA1 (=1)
Details: HEK293; relative to 50 uM VUAA1 response; below 0.05 set to 0; read-out: % activation
Protocol: Twelve thousand to 18,000 cells were plated into each well of a black wall, transparent bottom 384-well microplate (Greiner) 48 h or 72 h before the measurements and were simultaneously treated with 1 μg/mL doxycycline. […] VOC solutions (VOC buffer with 4× concentration of the final measured VOC concentration, 9 µL/well was injected) were measured on the same wells in a second round with the same protocol. […] On each plate, we recorded the response of each cell line to 50 µM VUAA1. […]
assay.metric: activity at 100 µM (%)
Please state the figure in %; there is no need to write the unit.

Cc1cccc(C)c1 | 8.8

Task: May I ask what activity at 100 µM has been recorded for C=C1CC[C@@]23C[C@@H]1C(C)(C)[C@@H]2CC[C@H]3C [(+)-beta-cedrene] ?
Result: 0

Task: May I ask what activity at 100 µM has been recorded for C=C1[C@H]2CC[C@@H]3[C@H]2C(C)(C)CCC[C@]13C [(+)-longifolene] ?
Result: 0

Task: May I ask what activity at 100 µM has been recorded for C=C1CCC2(C(C)C)CC12 (stereo not drawn) ?
Result: 8.7

Task: May I ask what activity at 100 µM has been recorded for C=CC(C)(O)CCC=C(C)C (stereo not drawn) ?
Result: 6.3

Task: May I ask what activity at 100 µM has been recorded for Cc1ccccc1C ?
Result: 8.27

Task: May I ask what activity at 100 µM has been recorded for C=C(C)C1CCC2(C)OC2C1 (single isomer, unassigned; (+)) [(+)-limonene oxide] ?
Result: 0

Task: May I ask what activity at 100 µM has been recorded for Cc1ccc(C)cc1 ?
Result: 6.07

Task: May I ask what activity at 100 µM has been recorded for Cc1ccc(C(C)C)cc1 ?
Result: 9.05

* * *

Target: Drosophila OR47a (Drosophila melanogaster, UniProt P81921)
Construct: expressed in transfected cells
Sequence (P81921 1-385): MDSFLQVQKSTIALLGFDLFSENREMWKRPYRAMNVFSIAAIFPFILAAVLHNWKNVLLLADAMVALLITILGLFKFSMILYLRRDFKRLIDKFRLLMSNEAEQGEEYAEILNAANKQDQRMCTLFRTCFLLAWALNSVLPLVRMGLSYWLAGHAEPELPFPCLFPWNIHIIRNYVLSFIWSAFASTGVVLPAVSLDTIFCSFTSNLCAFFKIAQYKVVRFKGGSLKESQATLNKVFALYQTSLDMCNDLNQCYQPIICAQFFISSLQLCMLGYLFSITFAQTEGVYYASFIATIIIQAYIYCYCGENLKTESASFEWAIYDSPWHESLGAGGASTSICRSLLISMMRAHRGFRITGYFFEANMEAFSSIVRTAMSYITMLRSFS
Sequence (Q9VNB5 1-486 partner): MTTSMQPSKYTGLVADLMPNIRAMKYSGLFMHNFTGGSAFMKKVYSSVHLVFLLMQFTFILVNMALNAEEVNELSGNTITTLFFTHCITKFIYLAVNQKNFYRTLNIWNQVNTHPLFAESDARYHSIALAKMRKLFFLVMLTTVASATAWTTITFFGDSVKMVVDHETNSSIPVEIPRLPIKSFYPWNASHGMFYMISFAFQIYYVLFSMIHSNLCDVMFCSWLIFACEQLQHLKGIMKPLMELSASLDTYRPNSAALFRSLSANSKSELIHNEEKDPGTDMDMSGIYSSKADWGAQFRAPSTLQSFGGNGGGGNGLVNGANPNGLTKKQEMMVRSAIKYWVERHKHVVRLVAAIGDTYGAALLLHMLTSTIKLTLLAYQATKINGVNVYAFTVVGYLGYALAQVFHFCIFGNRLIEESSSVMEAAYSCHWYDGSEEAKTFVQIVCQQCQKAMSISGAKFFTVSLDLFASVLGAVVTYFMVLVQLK
Assay: Calcium ion fluorescence (GCaMP6) assay, OR47a stable HEK293 cell line
Assay type: cell-based
Details: OR47a cell line, VOC concentration 1 μM
assay.metric: OR47a response (VUAA1-normalized) at 1 μM
// return just the number, without any unit appended

// below: answered compounds
CC/C=C\CCO | 0.00
Cc1ccc(C(C)C)cc1 | 0.00
OCCc1ccccc1 | 0.0564
CC/C=C\CCOC(C)=O [Z-3-hexenyl acetate] | 0.35
CC1=CCC23CC1C(C)(C)C2CCC3C (stereo not shown) | 0.00

Task: For Drosophila OR47a (Drosophila melanogaster, UniProt P81921), provide OR47a response (VUAA1-normalized) at 1 μM of Cc1cccc(C)c1 please.
Result: 0.00

Task: For Drosophila OR47a (Drosophila melanogaster, UniProt P81921), provide OR47a response (VUAA1-normalized) at 1 μM of COC(=O)c1ccccc1 [methyl benzoate] please.
Result: 0.00

Task: For Drosophila OR47a (Drosophila melanogaster, UniProt P81921), provide OR47a response (VUAA1-normalized) at 1 μM of C=C1CCC2(C(C)C)CC12 (stereo not shown) please.
Result: 0.00

Task: For Drosophila OR47a (Drosophila melanogaster, UniProt P81921), provide OR47a response (VUAA1-normalized) at 1 μM of C=CC(C)(O)CCC=C(C)C (stereo not shown) please.
Result: 0.00

Task: For Drosophila OR47a (Drosophila melanogaster, UniProt P81921), provide OR47a response (VUAA1-normalized) at 1 μM of COC(=O)c1ccccc1O [methyl salicylate] please.
Result: 0.11

* * *

Molecular target: Drosophila OR10a (Drosophila melanogaster, UniProt Q9VYZ1)
Construct: expressed in transfected cells
Sequence (Q9VYZ1 whole entry, one chain of several): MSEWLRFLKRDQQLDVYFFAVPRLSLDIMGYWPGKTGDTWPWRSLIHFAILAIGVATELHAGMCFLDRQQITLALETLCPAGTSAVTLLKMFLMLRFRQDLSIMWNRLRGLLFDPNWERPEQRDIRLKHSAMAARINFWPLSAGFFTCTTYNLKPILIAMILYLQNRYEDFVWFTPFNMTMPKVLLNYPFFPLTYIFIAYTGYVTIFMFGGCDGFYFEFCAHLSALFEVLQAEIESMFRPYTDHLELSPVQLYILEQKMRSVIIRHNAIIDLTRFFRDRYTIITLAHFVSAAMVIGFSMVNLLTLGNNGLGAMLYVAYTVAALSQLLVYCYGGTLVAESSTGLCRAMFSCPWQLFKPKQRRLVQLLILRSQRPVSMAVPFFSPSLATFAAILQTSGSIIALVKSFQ
Experiment: Calcium ion fluorescence (GCaMP6) assay, OR10a stable HEK293 cell line
Assay type: cell-based
Details: HEK293, 1 μM VOC; 50 μM VUAA1 = 1; responses not exceeding 0.05 considered 0; read-out: OR10a Average response (VUAA1-normalized)
assay.metric: activation at 1 µM
Phrase the answer as number then unit, nothing more needed.

// below: answered compounds
CCCCCCCO [1-heptanol] | 1.56%
COc1cccc(OC)c1 [1,3-dimethoxy benzene] | 0%
CCCCC(C)O (stereo not drawn) [2-hexanol] | 2.54%
CCCCCCCCC(CO)CCCCCC (stereo not drawn) [2-hexyl-1-decanol] | 15%

Task: For Drosophila OR10a (Drosophila melanogaster, UniProt Q9VYZ1), provide activation at 1 µM of CCCCCCCCCC=O [decanal] please.
Result: 0%

Task: For Drosophila OR10a (Drosophila melanogaster, UniProt Q9VYZ1), provide activation at 1 µM of COC(=O)c1ccccc1 [methyl benzoate] please.
Result: 31%

Task: For Drosophila OR10a (Drosophila melanogaster, UniProt Q9VYZ1), provide activation at 1 µM of OCCc1ccccc1 [phenethyl alcohol] please.
Result: 3%

Task: For Drosophila OR10a (Drosophila melanogaster, UniProt Q9VYZ1), provide activation at 1 µM of CCCC(O)CC (stereo not drawn) [3-hexanol] please.
Result: 16%

Task: For Drosophila OR10a (Drosophila melanogaster, UniProt Q9VYZ1), provide activation at 1 µM of CCCCCOC(C)=O [pentyl acetate] please.
Result: 11%

* * *

Biological target: Drosophila OR85b (Drosophila melanogaster)
Construct: expressed in transfected cells
Assay: Calcium ion fluorescence (GCaMP6) assay, OR85b stable HEK293 cell line
Format: cell-based
Settings: ligand concentration 10 (unit not given); threshold 0.05, below shown as 0
Description: These VUAA1 normalized ∆F values were used to compare the different receptors and ligands. The concentration-dependent effect of the reference ligands on their cognate cell lines was examined in more detail. Twelve different ligand concentrations were measured on each cell line in an overall 0.01 μM to 100 μM concentration range with 5 repetitions with three technical replicates each time. […]
assay.metric: DF norm AVERAGE OR85b
// return just the number, without any unit appended

// below: answered molecules
C=C1CCC2CC1C2(C)C (centres unmarked) | 0.09683
C=CCc1ccc(O)c(OC)c1 | 0

Task: May I ask what DF norm AVERAGE OR85b has been recorded for Cc1ccccc1C ?
Result: 0

Task: May I ask what DF norm AVERAGE OR85b has been recorded for CCOC(=O)c1ccccc1 [ethyl benzoate] ?
Result: 0

Task: May I ask what DF norm AVERAGE OR85b has been recorded for CC1=CCC2CC1C2(C)C (centres unmarked) ?
Result: 0

Task: May I ask what DF norm AVERAGE OR85b has been recorded for O=Cc1ccccc1 ?
Result: 0

Task: May I ask what DF norm AVERAGE OR85b has been recorded for CCCCOC(C)=O [butyl acetate] ?
Result: 0

Task: May I ask what DF norm AVERAGE OR85b has been recorded for CC(=O)OCC(C)C [isobutyl acetate] ?
Result: 0

Task: May I ask what DF norm AVERAGE OR85b has been recorded for C=CC(C)(O)CCC=C(C)C (centres unmarked) ?
Result: 0
